Just for reference, ChEMBL document CHEMBL1155339 is where these values come from.

# experiment-description: Dissociation constant, pKa of the compound
# Format: physicochemical
property-label: pKa
Keep the answer to the number alone.

Problem: Given the entry `O=C(O)C[N+](=O)[O-]` , report its measured pKa.
Result: 1.68
